# system_tested: UniProt:Q12809
# Sequence (Q12809 whole entry): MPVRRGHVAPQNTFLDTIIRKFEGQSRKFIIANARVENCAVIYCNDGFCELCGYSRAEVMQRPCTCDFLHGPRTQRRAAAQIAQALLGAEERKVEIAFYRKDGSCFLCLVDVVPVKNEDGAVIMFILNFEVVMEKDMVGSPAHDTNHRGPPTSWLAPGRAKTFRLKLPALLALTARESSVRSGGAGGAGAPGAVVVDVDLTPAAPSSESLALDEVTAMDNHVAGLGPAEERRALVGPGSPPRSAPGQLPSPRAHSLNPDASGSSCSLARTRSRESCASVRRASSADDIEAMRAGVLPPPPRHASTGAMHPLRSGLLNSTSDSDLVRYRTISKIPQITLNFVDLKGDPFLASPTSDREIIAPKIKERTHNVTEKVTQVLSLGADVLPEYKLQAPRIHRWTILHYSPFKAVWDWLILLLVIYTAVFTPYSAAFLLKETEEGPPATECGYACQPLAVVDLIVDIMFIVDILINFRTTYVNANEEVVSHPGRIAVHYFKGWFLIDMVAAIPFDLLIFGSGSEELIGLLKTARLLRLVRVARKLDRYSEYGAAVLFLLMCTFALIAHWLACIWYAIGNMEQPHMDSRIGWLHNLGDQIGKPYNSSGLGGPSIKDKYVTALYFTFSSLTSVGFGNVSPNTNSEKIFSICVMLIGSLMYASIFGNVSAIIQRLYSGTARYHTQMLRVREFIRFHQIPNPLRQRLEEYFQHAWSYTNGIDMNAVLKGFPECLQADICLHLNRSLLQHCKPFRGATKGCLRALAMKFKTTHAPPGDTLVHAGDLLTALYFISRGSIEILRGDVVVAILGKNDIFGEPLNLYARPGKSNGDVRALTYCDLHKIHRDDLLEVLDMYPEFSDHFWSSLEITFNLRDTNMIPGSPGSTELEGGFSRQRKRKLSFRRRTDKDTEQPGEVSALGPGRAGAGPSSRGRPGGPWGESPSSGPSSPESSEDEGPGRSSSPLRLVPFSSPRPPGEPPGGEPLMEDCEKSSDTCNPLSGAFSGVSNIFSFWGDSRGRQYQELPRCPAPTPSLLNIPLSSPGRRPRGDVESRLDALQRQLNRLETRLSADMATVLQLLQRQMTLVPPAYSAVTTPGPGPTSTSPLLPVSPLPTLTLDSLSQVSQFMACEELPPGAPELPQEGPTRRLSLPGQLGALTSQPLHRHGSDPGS
# assay: whole-cell patch clamp in HEK […] cells stably expressing hERG
value_type: pIC50
Formally, pIC50 is defined as -log10 of the concentration c, with c in mol/L.

Query :: Request - read-out pIC50 | tested on UniProt:Q12809 | molecule Cc1ncc2n1-c1ccc(Cl)cc1C(c1ccccc1F)=NC2 [midazolam]
Result :: 4.87
